Below are IC50 values measured for Glucocorticoid receptor (Homo sapiens, UniProt P04150).
parameterMeasured: IC50 (nM)

Below, 2 molecules whose answers are already recorded.
{"columns": ["molecule", "endpointUnit", "IC50"],
 "data": [
  ["CCC1(CC(O)(CNC(=O)c2cnn(-c3ccc(F)cc3)c2N)C(F)(F)F)CCCc2ccccc21 (stereo in doubt; 21D1E1)", "nM", 20],
  ["Cc1c(S(=O)(=O)NCC(O)(CC2(C)CCCc3ccccc32)C(F)(F)F)cnn1-c1ccccc1 (stereo in doubt; 17D2E2)", "nM", 30.2]
]}

[P] CCn1nc(C)c(Br)c1C(=O)NCC(O)(CC1(C)CCCc2ccccc21)C(F)(F)F (centres undefined)
[Q] CC1(CC(O)(CNC(=O)c2cnn(-c3ccccc3)c2N)C(F)(F)F)CCCc2ccccc21 (stereo in doubt; 19D1E2)
Input line: Which item exceeds the other in IC50, P or Q ? To answer, give the label that identifies your chosen option.
Output line: P
